Test system: Colo-205 cells
Test: Cell viability, CellTiter-Glo
Assay type: cell-based
Details: Homo sapiens, COLO 205, 72 h, Colo-205, 72 hrs post drug addition
Attribute measured: IC50 (µM)
Express the result in µM but write the number alone.

**Q:** Any idea what its IC50 is? The compound is O=c1[nH]c([C@@H]2CCCN2)nc2c1oc1ccc(Cl)cc12
**A:** 1.1

----------
System: HCC1954 cells
Test: Cell viability, CellTiter-Glo
Assay type: cell-based
Conditions: Homo sapiens; HCC1954, 72 hrs post drug addition
Attribute measured: IC50 (nM)
Only the number, expressed in nM, is required.

**Q:** Looking for the measured IC50 of O=C1NCCc2[nH]c(-c3ccncc3)cc21 [PHA-767491] , can you help?
**A:** 640

----------
// values below are reported IC50
Tested on: HCC1954 cells
Assay: Cell viability, CellTiter-Glo
Assay type: cell-based
Conditions: Homo sapiens, HCC1954, 72 h, HCC1954, 72 hrs post drug addition
Unit nM implied. Number only.

- Input smiles: "O=C1Nc2ccc3ncsc3c2/C1=C/c1cnc[nH]1"
  Unit annotation: "nM"
  Reported measurement: 1700
- Input smiles: "O=C1NC(=O)c2c1c1c3ccccc3n3c1c1c2c2ccccc2n1[C@H]1CC[C@@H]3O1"
  Unit annotation: "nM"
  Reported measurement: 2420

Continue with the next compound.
**Q:** Please give the measured IC50 for this compound: O=c1[nH]c([C@@H]2CCCN2)nc2c1oc1ccc(Cl)cc12
**A:** 22900

----------
Target: purified DDK (Homo sapiens, UniProt O00311)
Construct: His6-Smt3 (SUMO) (N, cleaved yes); made in house; host or cells: E. coli BL21-RIPL (pKT37, pETDuet-1 vector)
Sequence (O00311 whole entry): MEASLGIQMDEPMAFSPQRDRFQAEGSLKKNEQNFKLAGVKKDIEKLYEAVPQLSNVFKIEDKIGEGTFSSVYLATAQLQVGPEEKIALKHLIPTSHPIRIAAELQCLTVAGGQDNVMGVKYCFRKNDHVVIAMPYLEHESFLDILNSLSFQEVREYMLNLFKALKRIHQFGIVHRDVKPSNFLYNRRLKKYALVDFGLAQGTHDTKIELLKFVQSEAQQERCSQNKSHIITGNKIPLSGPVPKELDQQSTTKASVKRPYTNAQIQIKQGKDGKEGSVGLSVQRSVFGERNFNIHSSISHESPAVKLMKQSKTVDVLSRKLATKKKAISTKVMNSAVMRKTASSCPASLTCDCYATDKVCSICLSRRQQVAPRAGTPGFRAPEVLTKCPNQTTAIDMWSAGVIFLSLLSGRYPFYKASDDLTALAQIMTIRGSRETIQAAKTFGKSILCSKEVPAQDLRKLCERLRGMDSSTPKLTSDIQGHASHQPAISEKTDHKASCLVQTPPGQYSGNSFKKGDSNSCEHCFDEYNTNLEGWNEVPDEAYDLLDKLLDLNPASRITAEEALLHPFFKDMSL
Sequence (Q9UBU7 341-674 partner limits assumed): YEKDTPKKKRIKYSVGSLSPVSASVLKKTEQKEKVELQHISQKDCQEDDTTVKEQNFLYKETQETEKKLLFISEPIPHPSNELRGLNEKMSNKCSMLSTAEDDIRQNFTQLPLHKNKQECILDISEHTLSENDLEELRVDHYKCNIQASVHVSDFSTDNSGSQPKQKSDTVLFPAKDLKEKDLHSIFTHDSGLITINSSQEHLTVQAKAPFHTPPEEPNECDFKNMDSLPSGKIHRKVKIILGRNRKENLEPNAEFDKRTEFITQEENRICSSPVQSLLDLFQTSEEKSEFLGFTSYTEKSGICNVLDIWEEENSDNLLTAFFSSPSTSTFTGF
Assay: DDK thermal stability shift assay (TSA)
Assay type: binding
Settings: library screen, 20 µM compound
Quick rule for you: ΔTm under 0.6 °C gets T, anything else gets F.

Known results for molecules:
- Molecule: "CNc1cc2c(Nc3cccc(Br)c3)ncnc2cn1"
  Class name: "T"
- Molecule: "Cc1ccc2c(=O)c3ccccc3n(CCCN)c2c1C.O=C(O)/C=C\\C(=O)O [ER 27319 maleate]"
  Class name: "T"
- Molecule: "CCCCCCCCCCCCCCCCn1cc[n+](Cc2ccccc2)c1C.[I-]"
  Class name: "T"
- Molecule: "O=C(Nc1ccc(-c2cn[nH]c2)cc1)C1COc2ccccc2O1 (stereo not drawn)"
  Class name: "F"
- Molecule: "CCN(CC)C(=O)c1ccc(Nc2nc(OCC3CCCCC3)c3[nH]cnc3n2)cc1"
  Class name: "T"

**Q:** Does COc1cc2nccc(Oc3ccc(NC(=O)Nc4ccc(F)cc4F)c(F)c3)c2cc1OC have ΔTm strictly under 0.6 °C?
**A:** T

**Q:** Find out if reported ΔTm for O=C(c1ccc(Nc2nccc(-c3cc4ccccc4s3)n2)cc1)N1CCC(N2CCCC2)CC1 [IKK 16] is less than 0.6 °C
**A:** F

**Q:** # check: ΔTm < 0.6 °C for CC(C)(C)c1cc(C=C(C#N)C#N)cc(Br)c1O
**A:** F

**Q:** Is ΔTm strictly under 0.6 °C for the entry N#Cc1c(C2CCNCC2)cc(-c2c(O)cccc2OCC2CC2)nc1N ?
**A:** F

**Q:** State whether 0.6 °C exceeds ΔTm recorded for COc1cc2c(cc1OC)-c1[nH]nc(Nc3cccc(F)c3)c1C2 .
**A:** T

----------
compounds and their reported pIC50
Target: purified DDK (Homo sapiens, UniProt O00311)
Remember, pIC50 is on a log scale: it is -log10 of the molar concentration.

Example entries and their recorded answers appear below.
- Compound: "O=C1NC(=O)c2c1c1c3ccccc3n3c1c1c2c2ccccc2n1[C@H]1CC[C@@H]3O1 [SB 218078]"
  Reported measurement: 7.71
- Compound: "O=c1[nH]c([C@@H]2CCCN2)nc2c1oc1ccc(Cl)cc12 [XL413]"
  Reported measurement: 7.64
- Compound: "Cc1ccc([N+](=O)[O-])cc1S(=O)(=O)N(C)/N=C/c1cnc2ccc(Br)cn12 [PI 3-Kα Inhibitor VIII]"
  Reported measurement: 5.89

Alright, here's another compound for you.
**Q:** Identify the measured pIC50 of c1ccc2c(-c3ccncc3)c[nH]c2c1 [Rockout, 3-pyridin-4-yl-1H-indole] for purified DDK (Homo sapiens, UniProt O00311).
**A:** 6.07

----------
Molecular target: purified DDK (Homo sapiens, UniProt O00311)
Construct: His6-Smt3 (SUMO) (N, cleaved yes); made in house; host or cells: E. coli BL21-RIPL (pKT37, pETDuet-1 vector)
Assay: DDK thermal stability shift assay (TSA)
Assay type: binding
Settings: library screen, 20 µM compound; 20 µM
Labelling: ΔTm reported below 0.3 °C becomes criterion met; at or above becomes criterion not met.

Please review the entries below; each comes with its answer.
- Compound: "O=C(NC(NC(=S)Nc1ccc(F)c([N+](=O)[O-])c1)C(Cl)(Cl)Cl)C(c1ccccc1)c1ccccc1 (centres unmarked)"
  Class name: "criterion met"
- Compound: "Nc1[nH]nc2nc3ccccc3nc12"
  Class name: "criterion met"
- Compound: "CN(C)CCCn1cc(C2=C(c3c[nH]c4ccccc34)C(=O)NC2=O)c2ccccc21 [GF 109203X]"
  Class name: "criterion not met"
- Compound: "Nc1ncnc2n[nH]c(Nc3ccc(F)cc3)c12"
  Class name: "criterion not met"
- Compound: "O=c1cc(N2CCOCC2)oc2c1ccc1ccccc12 [DNA-PK Inhibitor II]"
  Class name: "criterion not met"
- Compound: "O=c1cc(N2CCOCC2)oc2c1ccc1ccccc12 [NU 7026]"
  Class name: "criterion not met"

--- query ---
**Q:** Is 0.3 °C strictly greater than the compound's reported ΔTm? compound: CN(C)c1ccc(/C=C2\C(=O)Nc3ccccc32)cc1
**A:** criterion met

----------
As shown below, each of these compounds has a reported ΔTm value.
Target: purified DDK (Homo sapiens, UniProt O00311)
Construct: His6-Smt3 (SUMO) (N, cleaved yes); made in house; host or cells: E. coli BL21-RIPL (pKT37, pETDuet-1 vector)
Assay: DDK thermal stability shift assay (TSA)
Type: binding
Conditions: library screen, 20 µM compound

Examples with their reported ΔTm follow.
- Compound: "CNCCNS(=O)(=O)c1cccc2cnccc12.Cl.Cl [H-8, Dihydrochloride]"
  ΔTm: "0.5 °C"
- Compound: "CCCCCCOC(=O)[C@]1(O)C[C@@H]2O[C@@]1(C)n1c3ccccc3c3c4c(c5c6ccccc6n2c5c31)C(=O)NC4 [KT5720]"
  ΔTm: "0.2 °C"
- Compound: "O=c1[nH]c2ccccc2n1C1CCN(Cc2ccc(-c3nc4cc5nc[nH]c5cc4nc3-c3ccccc3)cc2)CC1"
  ΔTm: "0 °C"
- Compound: "Cc1nc(N)sc1-c1ccnc(Nc2cccc([N+](=O)[O-])c2)n1 [Cdk2/9 Inhibitor]"
  ΔTm: "0.3 °C"

// next item, ΔTm requested
**Q:** Give the measured ΔTm of Cc1ccc(S(=O)(=O)/C=C/C#N)cc1 [BAY 11-7082] .
**A:** 0 °C

----------
Target: purified DDK (Homo sapiens, UniProt O00311)
Construct: His6-Smt3 (SUMO) (N, cleaved yes); made in house; host or cells: E. coli BL21-RIPL (pKT37, pETDuet-1 vector)
Assay: DDK thermal stability shift assay (TSA)
Type: binding
Conditions: library screen, 20 µM compound
Structures can show the parent of a compound that is named as a salt.
Reported ΔTm at 20 µM values are given for each entry in this list.
Note: state the figure and append the unit.

**Q:** Give the measured ΔTm at 20 µM of Oc1c2ccccc2c2c3c(cccc13)N=N2 .
**A:** 0.2 °C

**Q:** Quick one: ΔTm at 20 µM for CCN(CC)CCCCN1c2ccccc2Oc2ccc(Cl)cc21 ?
**A:** 0.3 °C

**Q:** GET /values?readout=ΔTm at 20 µM&item= CO[C@H]1C[C@@H]2CC[C@@H](C)[C@@](O)(O2)C(=O)C(=O)N2CCCC[C@H]2C(=O)O[C@H]([C@H](C)C[C@@H]2CC[C@@H](O)[C@H](OC)C2)CC(=O)[C@H](C)/C=C(\C)[C@@H](O)[C@@H](OC)C(=O)[C@H](C)C[C@H](C)/C=C/C=C/C=C/1C
**A:** 0 °C

**Q:** What value of measured ΔTm at 20 µM is listed for Cc1ccc([N+](=O)[O-])cc1S(=O)(=O)N(C)/N=C/c1cnc2ccc(Br)cn12 ?
**A:** 2.6 °C

**Q:** Can you look up the measured ΔTm at 20 µM of O=C1NC(=O)c2c1c1c3ccccc3[nH]c1n1cncc21 [Isogranulajmide] for me?
**A:** 1 °C

**Q:** # lookup: ΔTm at 20 µM of O=S(=O)(c1cccc2cnccc12)N1CCCNCC1 [Fasudil hydrochloride]
**A:** 0.9 °C

**Q:** So what does the record say about ΔTm at 20 µM for CN(C)S(=O)(=O)c1ccc2c(c1)/C(=C/c1cc3c([nH]1)CCCC3)C(=O)N2 ?
**A:** 0.1 °C

**Q:** Which ΔTm at 20 µM is listed for Oc1ccc(-c2nc(-c3ccncc3)c(-c3ccc(F)cc3)[nH]2)cc1 ?
**A:** 0.6 °C
